Square brackets hold non-standard residues; d marks the D form. Peptide text beside a SMILES is read from it. Aoc(2) = CCCCCC[C@H](N)C(=O)O
PROPERTY: Ki (µM)
Only the number, expressed in µM, is required.

Prompt: Entry NC(Cc1c[nH]cn1)C(=O)N1CCCC1 (stereo not shown) , system dipeptidyl peptidase IV from porcine kidney (Sus scrofa): what Ki was measured?
Completion: 35

Prompt: // fetch dipeptidyl peptidase IV from porcine kidney (Sus scrofa) Ki for CCC(C)C(N)C(=O)N1CC1 (stereo not shown)
Completion: 3.1

Prompt: Give the reported Ki for CCCCCC[C@H](N)C(=O)N1CCC[C@H]1C(=O)N[C@H](C(=O)O)[C@@H](C)CC [AOA-Pro-Ile, 2-Amino octanoic acid-Pro-Ile] (H-[Aoc(2)]-Pro-Ile-OH) (system: dipeptidyl peptidase IV from porcine kidney (Sus scrofa)).
Sequence (P22411 whole entry): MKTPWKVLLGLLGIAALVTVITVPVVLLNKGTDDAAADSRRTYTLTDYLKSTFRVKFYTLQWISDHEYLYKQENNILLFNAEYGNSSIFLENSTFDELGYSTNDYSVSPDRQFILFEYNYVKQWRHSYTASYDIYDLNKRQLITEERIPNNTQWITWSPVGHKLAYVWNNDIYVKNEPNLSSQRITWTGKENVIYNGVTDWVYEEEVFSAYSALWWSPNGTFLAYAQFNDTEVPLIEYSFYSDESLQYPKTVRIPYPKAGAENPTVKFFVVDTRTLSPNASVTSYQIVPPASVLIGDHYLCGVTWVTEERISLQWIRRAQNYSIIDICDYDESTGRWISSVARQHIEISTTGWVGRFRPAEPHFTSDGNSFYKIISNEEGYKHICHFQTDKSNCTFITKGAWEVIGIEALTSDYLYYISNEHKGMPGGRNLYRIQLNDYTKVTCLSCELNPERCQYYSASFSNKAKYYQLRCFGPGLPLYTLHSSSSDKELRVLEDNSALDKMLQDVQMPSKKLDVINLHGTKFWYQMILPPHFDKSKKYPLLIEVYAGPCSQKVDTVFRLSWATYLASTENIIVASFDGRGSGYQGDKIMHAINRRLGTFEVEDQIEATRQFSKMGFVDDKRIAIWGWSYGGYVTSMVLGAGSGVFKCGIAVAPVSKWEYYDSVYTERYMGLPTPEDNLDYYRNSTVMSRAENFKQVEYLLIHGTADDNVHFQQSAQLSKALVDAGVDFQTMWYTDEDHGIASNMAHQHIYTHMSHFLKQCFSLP
Completion: 12.6

Prompt: // map "N[C@@H](CCC(=O)NO)C(=O)N1CCSC1" to recorded Ki (system: dipeptidyl peptidase IV from porcine kidney (Sus scrofa))
Completion: 1.7
